Measured GI50 accompanies every entry in the list below.
Target: BaF3 cells expressing the target EGFR mutations (Homo sapiens, UniProt P00533, T790M/L858R, cells depend on it)
Construct: IC50, BAF3 EGFR L858R-T790M PURO POOL; other: BAF3 EGFR L858R-T790M PURO POOL cells, MTT; IC50, BAF3 EGFR L858R-T790M PURO POOL; other: BAF3 EGFR L858R-T790M PURO POOL cells; MTT
Sequence (P00533 whole entry T790M/L858R): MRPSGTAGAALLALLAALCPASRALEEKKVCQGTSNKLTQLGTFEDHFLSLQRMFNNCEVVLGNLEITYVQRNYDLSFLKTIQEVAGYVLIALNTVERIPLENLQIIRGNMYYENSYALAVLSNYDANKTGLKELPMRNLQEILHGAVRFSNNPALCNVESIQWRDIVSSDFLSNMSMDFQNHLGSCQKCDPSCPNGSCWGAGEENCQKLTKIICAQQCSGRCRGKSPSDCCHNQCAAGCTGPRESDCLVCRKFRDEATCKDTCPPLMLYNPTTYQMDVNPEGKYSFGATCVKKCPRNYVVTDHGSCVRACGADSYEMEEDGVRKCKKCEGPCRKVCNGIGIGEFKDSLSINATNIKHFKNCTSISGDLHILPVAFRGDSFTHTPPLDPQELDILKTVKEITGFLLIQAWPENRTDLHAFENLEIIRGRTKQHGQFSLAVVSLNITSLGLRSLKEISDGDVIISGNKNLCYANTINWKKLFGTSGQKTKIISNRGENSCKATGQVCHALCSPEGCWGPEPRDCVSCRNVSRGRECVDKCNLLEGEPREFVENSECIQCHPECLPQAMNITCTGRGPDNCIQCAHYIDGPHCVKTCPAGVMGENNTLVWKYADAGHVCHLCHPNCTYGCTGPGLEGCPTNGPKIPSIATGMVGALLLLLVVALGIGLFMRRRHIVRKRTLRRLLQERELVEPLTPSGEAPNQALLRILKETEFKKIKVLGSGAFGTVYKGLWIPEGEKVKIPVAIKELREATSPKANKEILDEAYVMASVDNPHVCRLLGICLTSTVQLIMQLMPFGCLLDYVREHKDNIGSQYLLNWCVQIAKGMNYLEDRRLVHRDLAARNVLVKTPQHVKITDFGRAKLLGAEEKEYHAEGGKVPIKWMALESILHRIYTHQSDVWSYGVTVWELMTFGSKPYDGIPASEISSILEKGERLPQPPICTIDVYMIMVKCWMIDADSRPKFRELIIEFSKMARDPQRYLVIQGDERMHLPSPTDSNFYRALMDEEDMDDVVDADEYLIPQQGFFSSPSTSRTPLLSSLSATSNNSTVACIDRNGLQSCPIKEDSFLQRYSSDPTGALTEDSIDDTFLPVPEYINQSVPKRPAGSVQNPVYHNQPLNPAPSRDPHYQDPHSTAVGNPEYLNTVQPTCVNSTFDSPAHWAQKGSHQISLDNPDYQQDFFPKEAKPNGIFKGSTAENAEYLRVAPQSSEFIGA
Test: Antiproliferative activity (MTT) against BaF3 cells expressing the target EGFR mutations
Format: cell-based
Conditions: BAF3 EGFR L858R-T790M PURO POOL cells, read-out: IC50, BAF3 EGFR L858R-T790M PURO POOL
metric: GI50

- C=CC(=O)Nc1cc(Nc2ncc(Cl)c(Nc3ccccc3P(C)(C)=O)n2)c(OC)cc1O[C@@H](COC)CN(C)C: < 50 nM
- C=C(CN1CCC(O)C1)C(=O)Nc1ccc(OC)c(Nc2ncc(Cl)c(Nc3ccccc3P(C)(C)=O)n2)c1 (stereo not shown): < 50 nM
- COc1ccc(NC(=O)/C=C\C(=O)N(C)C)cc1Nc1ncc(Cl)c(Nc2ccccc2P(C)(C)=O)n1: ≥ 250 nM
- C=CC(=O)Nc1cc(Nc2ncc(Cl)c(Nc3ccccc3P(C)(C)=O)n2)c(OC)cc1N1CCCN(C)CC1: < 50 nM

---

Measured GI50 accompanies every entry in the list below.
Molecular target: BaF3 cells expressing the target EGFR mutations (Homo sapiens, UniProt P00533, T790M, cells depend on it, form not given)
Construct: IC50, BAF3 EGFR DEL T790M PURO POOL; other: BAF3 EGFR DEL T790M PURO POOL cells, MTT; other: BAF3 EGFR DEL T790M PURO POOL cells; MTT
Sequence (P00533 with tags, fused parts or gaps DEL746-750/T790M, form open): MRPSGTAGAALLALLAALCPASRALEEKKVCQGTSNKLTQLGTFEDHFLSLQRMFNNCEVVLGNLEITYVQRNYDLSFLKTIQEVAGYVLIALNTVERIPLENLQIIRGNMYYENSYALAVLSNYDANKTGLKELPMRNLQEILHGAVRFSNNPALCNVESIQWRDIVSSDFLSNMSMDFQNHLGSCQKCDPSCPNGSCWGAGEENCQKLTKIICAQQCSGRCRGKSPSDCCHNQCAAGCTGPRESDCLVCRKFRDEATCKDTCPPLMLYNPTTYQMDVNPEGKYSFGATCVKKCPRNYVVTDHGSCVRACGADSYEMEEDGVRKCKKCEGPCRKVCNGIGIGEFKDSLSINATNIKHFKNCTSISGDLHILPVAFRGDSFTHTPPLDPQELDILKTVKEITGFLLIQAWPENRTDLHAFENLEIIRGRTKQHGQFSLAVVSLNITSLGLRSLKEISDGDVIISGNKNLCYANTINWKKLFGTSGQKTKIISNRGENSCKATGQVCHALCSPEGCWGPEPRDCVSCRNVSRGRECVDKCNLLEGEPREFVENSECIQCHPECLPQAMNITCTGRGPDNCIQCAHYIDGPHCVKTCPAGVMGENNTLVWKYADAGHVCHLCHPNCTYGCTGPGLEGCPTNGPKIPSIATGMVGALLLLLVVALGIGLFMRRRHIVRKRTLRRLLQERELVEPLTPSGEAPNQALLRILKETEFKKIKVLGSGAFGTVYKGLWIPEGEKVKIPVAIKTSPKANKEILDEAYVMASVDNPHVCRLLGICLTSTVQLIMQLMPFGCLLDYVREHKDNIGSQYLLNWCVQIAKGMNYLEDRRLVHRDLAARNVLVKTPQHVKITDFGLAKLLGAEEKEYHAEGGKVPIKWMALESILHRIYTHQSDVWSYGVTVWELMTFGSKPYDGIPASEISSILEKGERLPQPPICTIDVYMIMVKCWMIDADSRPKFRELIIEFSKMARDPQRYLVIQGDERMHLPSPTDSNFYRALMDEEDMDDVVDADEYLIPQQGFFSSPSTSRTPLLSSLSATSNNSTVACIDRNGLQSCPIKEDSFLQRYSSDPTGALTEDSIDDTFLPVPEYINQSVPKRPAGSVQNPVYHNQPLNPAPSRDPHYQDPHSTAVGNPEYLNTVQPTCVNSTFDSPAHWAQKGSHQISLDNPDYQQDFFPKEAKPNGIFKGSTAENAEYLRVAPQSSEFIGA
Assay: Antiproliferative activity (MTT) against BaF3 cells expressing the target EGFR mutations
Format: cell-based
Conditions: BAF3 EGFR DEL T790M PURO POOL cells, read-out: IC50, BAF3 EGFR DEL T790M PURO POOL
metric: GI50

• C=CC(=O)Nc1cc(Nc2ncc(Cl)c(Nc3ccccc3P(C)(C)=O)n2)c(OC)cc1N1CCC(N2CCCN(C)CC2)CC1 = 50 to 100 nM
• C=CC(=O)Nc1cc(Nc2ncc(Cl)c(Nc3ccccc3P(C)(C)=O)n2)c(OC)cc1N1CCC(N(CC)CC)C1 (stereo not shown) = < 50 nM
• COc1ccc(NC(=O)/C=C\C(=O)NCCN(C)C)cc1Nc1ncc(Cl)c(Nc2ccccc2P(C)(C)=O)n1 = ≥ 250 nM
• C=CC(=O)Nc1cc(Nc2ncc(Cl)c(Nc3ccccc3P(C)(C)=O)n2)c(OC)cc1OCCCN1CCOCC1 = 101 to 250 nM

---

Target: BaF3 cells expressing the target EGFR mutations (Homo sapiens, UniProt P00533, T790M/L858R, cells depend on it)
Construct: IC50, BAF3 EGFR L858R-T790M PURO POOL; other: BAF3 EGFR L858R-T790M PURO POOL cells, MTT; IC50, BAF3 EGFR L858R-T790M PURO POOL; other: BAF3 EGFR L858R-T790M PURO POOL cells; MTT
Experiment: Antiproliferative activity (MTT) against BaF3 cells expressing the target EGFR mutations
Assay type: cell-based
Settings: BAF3 EGFR L858R-T790M PURO POOL cells, read-out: IC50, BAF3 EGFR L858R-T790M PURO POOL
metric: GI50

* COc1cc(F)c(NC(=O)C#CCN(C)C)cc1Nc1ncc(Cl)c(Nc2ccccc2P(C)(C)=O)n1 [Example 87] | < 0.05 µM
* COc1ccc(NC(=O)C#CC(C)(C)N2CCCC2)cc1Nc1ncc(Cl)c(Nc2ccccc2P(C)(C)=O)n1 [Example 91] | < 0.05 µM
* C=CC(=O)Nc1cc(Nc2ncc(Cl)c(Nc3ccccc3P(C)(C)=O)n2)c(OC)cc1N1CCC(N2CCC(O)CC2)C1 (stereo not shown) [Example 39] | ≥ 0.25 µM
* C=CC(=O)Nc1cc(Nc2ncc(Cl)c(Nc3ccccc3P(C)(C)=O)n2)c(OC)cc1OC(COC)CN(C)C (stereo not shown) [Example 130] | < 0.05 µM
